For reference, IC50 measured on FAK kinase (catalytic construct FAK(410-689)) (Homo sapiens (Human), UniProt Q05397):
Numeric only. Scale: nM

Completed entries (count: 2):
1) CN(C)C1CN(C(=O)c2cccc(Nc3ncc(C(F)(F)F)c(NCc4cccnc4N(C)S(C)(=O)=O)n3)c2)C1; 4.93
2) CN(c1ncccc1CNc1nc(Nc2ccc(S(C)(=O)=O)nc2)ncc1C(F)(F)F)S(C)(=O)=O; 68.6

Reading of IC50 for CCNC(=O)c1ccc(Nc2ncc(C(F)(F)F)c(NCc3ncccc3N(C)S(C)(=O)=O)n2)cc1 with FAK kinase (catalytic construct FAK(410-689)) (Homo sapiens (Human), UniProt Q05397): 0.59
